Measured viability at 48 h, 1000 molar ratio, listed per entry for reference.
PROTOCOL SUMMARY: Cytotoxicity against human Raji cells assessed as cell viability at 1000 molar ratio after 48 hrs by trypan blue staining
Format: cell-based
MEASUREMENT CONDITIONS: read-out: Activity
READOUT LABEL: viability at 48 h, 1000 molar ratio

INSERT INTO measurements (compound, readout_label, measurement) VALUES
  ('C[C@H](O)c1cc2c(o1)C(=O)c1cccc(O)c1C2=O', 'viability at 48 h, 1000 molar ratio', '60%'),
  ('C[C@H](O)c1cc2c(o1)C(=O)c1c(O)cccc1C2=O', 'viability at 48 h, 1000 molar ratio', '60%'),
  ('CC(=O)c1cc2c(o1)C(=O)c1c(O)cccc1C2=O', 'viability at 48 h, 1000 molar ratio', '70%'),
  ('CC(O)c1cc2c(o1)C(=O)c1cccc(O)c1C2=O (racemic)', 'viability at 48 h, 1000 molar ratio', '60%'),
  ('CC(C)=CCC1=C(O)C(=O)c2ccccc2C1=O [LAPACHOL]', 'viability at 48 h, 1000 molar ratio', '50%'),
  ('C[C@@H](O)c1cc2c(o1)C(=O)c1c(O)cccc1C2=O', 'viability at 48 h, 1000 molar ratio', '60%'),
  ('CC(O)c1cc2c(o1)C(=O)c1c(O)cccc1C2=O (racemic)', 'viability at 48 h, 1000 molar ratio', '60%'),
  ('CC(=O)c1cc2c(o1)C(=O)c1cccc(O)c1C2=O', 'viability at 48 h, 1000 molar ratio', '60%'),
  ('CC1(C)CCC2=C(O1)c1ccccc1C(=O)C2=O [LAPACHONE]', 'viability at 48 h, 1000 molar ratio', '50%'),
  ('C[C@@H](O)c1cc2c(o1)C(=O)c1cccc(O)c1C2=O', 'viability at 48 h, 1000 molar ratio', '70%');

----------
Tested on: Raji
PROTOCOL SUMMARY: Inhibition of 12-O-tetradecanoylphorbol-13-acetate-induced EBV-early antigen activation in human Raji cells assessed as EA induction at 100 molar ratio after 48 hrs by immunofluorescence technique relative to 12-O-tetradecanoylphorbol-13-acetate
Type: cell-based
Set-up: scale not given: the % may be the effect or the level left
MEASUREMENT CONDITIONS: human gammaherpesvirus 4
Each entry below carries its reported Activity.
READOUT LABEL: Activity

INSERT INTO assay_data (molecule, readout_label, measurement) VALUES
  ('C[C@@H](O)c1cc2c(o1)C(=O)c1c(O)cccc1C2=O', 'Activity', '52.5%'),
  ('CC(O)c1cc2c(o1)C(=O)c1c(O)cccc1C2=O (racemic)', 'Activity', '59%'),
  ('CC(=O)c1cc2c(o1)C(=O)c1cccc(O)c1C2=O', 'Activity', '23.7%'),
  ('CC1(C)CCC2=C(O1)c1ccccc1C(=O)C2=O', 'Activity', '50.4%'),
  ('CC(C)=CCC1=C(O)C(=O)c2ccccc2C1=O', 'Activity', '65.2%'),
  ('CC(=O)c1cc2c(o1)C(=O)c1c(O)cccc1C2=O', 'Activity', '27.5%');

----------
Test system: Bacillus subtilis
PROTOCOL SUMMARY: Antimicrobial activity against Bacillus subtilis NBRC3134 after 24 hrs by broth dilution method
Type: functional
MEASUREMENT CONDITIONS: NBRC3134, 24 h
READOUT LABEL: MIC (mg/L)

INSERT INTO results (structure_smiles_string, measurement_unit, measurement) VALUES
  ('CC1(C)S[C@@H]2[C@H](NC(=O)Cc3ccccc3)C(=O)N2[C@H]1C(=O)O', 'mg/L', 0.39),
  ('C[C@H](O)c1cc2c(o1)C(=O)c1c(O)cccc1C2=O', 'mg/L', 1.56),
  ('CC(=O)c1cc2c(o1)C(=O)c1cccc(O)c1C2=O', 'mg/L', 1.56),
  ('C[C@@H](O)c1cc2c(o1)C(=O)c1cccc(O)c1C2=O', 'mg/L', 0.78),
  ('C[C@@H](O)c1cc2c(o1)C(=O)c1c(O)cccc1C2=O', 'mg/L', 1.56),
  ('C[C@H](O)c1cc2c(o1)C(=O)c1cccc(O)c1C2=O', 'mg/L', 0.78);
